Molecular target: T1, ANTIBODY EXPRESSION CONTROL
T1 construct: also called mouse anti-canine antibody (capture reagent of the expression control ELISA)
Experiment: SPR Biacore, expression control
Measured Parameter: koff (s⁻¹)
Response body: numeric value in s⁻¹, unit text excluded.

INSERT INTO measurements (binder, measured_parameter, result_unit, readout_number) VALUES
  ('Mu_02D09_VH (SEQ ID NO: 31)_Y50A (antibody, V domains shown) VH: EVQLVESGGGLVKPGGSLTLSCAASGFTFSDYGMHWLRQAPEKGLEWVAAISSGSRAVFFADTVKGRFTISRDNAKNTLFLQMTSLRSDDTAMYYCARDRYDGRGFAYWGQGTLVTVSA VL: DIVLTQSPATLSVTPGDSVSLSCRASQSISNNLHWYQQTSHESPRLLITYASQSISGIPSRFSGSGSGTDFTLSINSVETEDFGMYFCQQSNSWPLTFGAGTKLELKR', 'koff', 's⁻¹', '3.68e-07'),
  ('Mu_09E09_VL (SEQ ID NO: 37)_G91A (antibody, V domains shown) VH: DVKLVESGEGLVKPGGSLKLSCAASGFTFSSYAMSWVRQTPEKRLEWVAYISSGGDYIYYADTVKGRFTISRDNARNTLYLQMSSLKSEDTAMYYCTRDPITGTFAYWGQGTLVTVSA VL: DLQMTQTTSSLSASLGDRVTISCRASQDINNYLNWYQQKPDGTVKLLIYYTSTLHSGVPSRFSGSGSGTDYSLTISNLEQEDIATYFCQQANTLPWTFGGGTKLEIKR', 'koff', 's⁻¹', '8.96e-05'),
  ('Mu_09E09_VL (SEQ ID NO: 37)_Q90A (antibody, V domains shown) VH: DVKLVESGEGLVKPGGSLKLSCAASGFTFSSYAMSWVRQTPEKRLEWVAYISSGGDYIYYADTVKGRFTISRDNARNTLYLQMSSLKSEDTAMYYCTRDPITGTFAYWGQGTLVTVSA VL: DLQMTQTTSSLSASLGDRVTISCRASQDINNYLNWYQQKPDGTVKLLIYYTSTLHSGVPSRFSGSGSGTDYSLTISNLEQEDIATYFCQAGNTLPWTFGGGTKLEIKR', 'koff', 's⁻¹', '7.12e-05');

Exam item: Suppose we examine the binder Mu_02D09_VH (SEQ ID NO: 31)_D62A (antibody, V domains shown) VH: EVQLVESGGGLVKPGGSLTLSCAASGFTFSDYGMHWLRQAPEKGLEWVAYISSGSRAVFFAATVKGRFTISRDNAKNTLFLQMTSLRSDDTAMYYCARDRYDGRGFAYWGQGTLVTVSA VL: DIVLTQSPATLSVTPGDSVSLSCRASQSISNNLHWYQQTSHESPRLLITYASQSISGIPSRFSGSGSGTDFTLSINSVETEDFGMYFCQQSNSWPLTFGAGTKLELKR ; what koff value has been reported?
Marked response: 2.45e-07

Exam item: # repeat for Mu_10F07_VL (SEQ ID NO: 41)_T97A (antibody, V domains shown) VH: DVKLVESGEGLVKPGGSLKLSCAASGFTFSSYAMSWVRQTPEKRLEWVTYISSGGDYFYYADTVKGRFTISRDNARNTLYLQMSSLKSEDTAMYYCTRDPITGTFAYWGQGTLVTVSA VL: DIQMTQTTSSLSASLGDRVTISCRASQDITNYLNWYQQKPDGTVKLLIYYTSTLHSGVPSRFSGSGSGTDFSLTISNLEQEDIATYFCQQGHMLPWAFGGGTKLEIKR
Marked response: 8.07e-05
